# measuredTarget: T1, murine IL-11 (Invigate, e.g., lot #C210819-09) (mouse, UniProt P47873 22-199)
# T1 construct: Bought protein; biotinylated where captured on streptavidin plates; also called mIL-11; mIL11
# T1 sequence: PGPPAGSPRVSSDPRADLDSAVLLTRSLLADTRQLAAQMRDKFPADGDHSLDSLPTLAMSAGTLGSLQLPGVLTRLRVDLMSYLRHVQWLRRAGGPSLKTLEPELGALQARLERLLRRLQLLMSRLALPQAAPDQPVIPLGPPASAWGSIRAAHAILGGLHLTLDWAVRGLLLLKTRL
# procedureDetails: SPR, Biacore 8K; antibody captured on anti-human IgG Fc chip, IL-11 analyte 0-50 nM, 1:1 fit
assayEndpoint: Kd

Some solved cases for reference:
binder: TPP-31286 (antibody, human IgG4, V domains shown, consecutive numbering; also called VH-E1Q) VH: QVQLLESGGGLVQPGGSLRLSCAASGFTFSHYDMNWLRQAPGKGLEWVGVISYDGSNKFYADFVKGRFTISRDNSKNTLYLQMNSLRAEDTAVYYCARTPGSHFDYWGQGTLVTVSS VL: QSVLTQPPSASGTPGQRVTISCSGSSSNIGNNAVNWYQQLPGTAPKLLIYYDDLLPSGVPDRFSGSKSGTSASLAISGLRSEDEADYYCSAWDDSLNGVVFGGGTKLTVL
assayEndpoint: Kd
recordedValue: 12 nM
//
binder: TPP-18087 (antibody, mouse IgG1, V domains shown, mIgG1, Lambda) VH: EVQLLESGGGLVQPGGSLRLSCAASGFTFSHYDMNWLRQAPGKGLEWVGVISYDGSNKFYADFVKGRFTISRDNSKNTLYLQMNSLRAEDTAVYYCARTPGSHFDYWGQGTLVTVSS VL: QSVLTQPPSASGTPGQRVTISCSGSSSNIGNNAVNWYQQLPGTAPKLLIYYDDLLPSGVPDRFSGSKSGTSASLAISGLRSEDEADYYCSAWDDSLNGVVFGGGTKLTVLG
assayEndpoint: Kd
recordedValue: 12 nM

Give the measured Kd of TPP-31302 (antibody, human IgG4, V domains shown, consecutive numbering; also called VH-D54E/VL-N97S) VH: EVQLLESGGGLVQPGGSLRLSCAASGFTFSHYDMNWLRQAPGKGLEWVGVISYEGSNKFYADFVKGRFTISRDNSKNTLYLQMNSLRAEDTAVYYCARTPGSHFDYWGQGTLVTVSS VL: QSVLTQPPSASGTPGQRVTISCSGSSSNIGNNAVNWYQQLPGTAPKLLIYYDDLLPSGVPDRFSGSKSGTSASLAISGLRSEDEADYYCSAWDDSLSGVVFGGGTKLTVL .
3.2 nM

FYI, the data here is from patent US20240317847A1.
